In this section we review reported composite z-score values for a set of molecules.
Target: Pro-neuregulin-1, membrane-bound isoform (Homo sapiens) (UniProt Q02297)
Sequence (Q02297 whole entry, looked up, canonical isoform): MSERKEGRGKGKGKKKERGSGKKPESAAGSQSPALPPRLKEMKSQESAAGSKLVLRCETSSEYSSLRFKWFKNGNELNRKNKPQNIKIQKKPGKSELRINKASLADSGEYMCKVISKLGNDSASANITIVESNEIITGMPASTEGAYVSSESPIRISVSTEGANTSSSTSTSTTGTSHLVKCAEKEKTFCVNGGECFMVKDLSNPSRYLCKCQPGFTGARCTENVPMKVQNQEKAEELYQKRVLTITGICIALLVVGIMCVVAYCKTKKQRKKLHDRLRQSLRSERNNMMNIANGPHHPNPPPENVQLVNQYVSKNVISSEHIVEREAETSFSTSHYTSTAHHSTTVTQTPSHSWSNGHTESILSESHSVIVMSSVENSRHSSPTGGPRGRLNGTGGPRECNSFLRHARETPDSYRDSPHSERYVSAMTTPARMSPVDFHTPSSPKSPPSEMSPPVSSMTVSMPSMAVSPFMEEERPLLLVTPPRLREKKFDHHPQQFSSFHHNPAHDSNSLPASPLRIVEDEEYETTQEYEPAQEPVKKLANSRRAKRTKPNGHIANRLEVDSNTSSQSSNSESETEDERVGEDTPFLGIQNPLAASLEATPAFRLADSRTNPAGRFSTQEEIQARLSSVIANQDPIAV
Experiment: NRG1 binders on small-molecule microarrays, primary screen, psychiatric disease protein project, biochemical, small-molecule microarray, fluorescence 635/667 (AID 1075);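 also: score combines 667 nm spot fluorescence with signal to noise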
Conditions: NRG1 binding, 635 nm fluorescence, higher = more signal
QUANTITY: composite z-score

{"MOLECULE": "C=C(COC)/C(=C/C[C@@H](OC(=O)c1ccncc1)c1cccc(OCCO)c1)c1cnc2ccccc2c1", "MEASUREMENT TARGET": "Pro-neuregulin-1, membrane-bound isoform (Homo sapiens) (UniProt Q02297)", "QUANTITY": "composite z-score", "OBSERVED VALUE": 1.14}
{"MOLECULE": "CC(CO)N1C(=O)[C@@H]2C3C(=O)OCCC/C=C\\[C@H]3OC23C=CCN(Cn2nnc4ccccc42)C(=O)[C@@H]13 (stereo partly specified)", "MEASUREMENT TARGET": "Pro-neuregulin-1, membrane-bound isoform (Homo sapiens) (UniProt Q02297)", "QUANTITY": "composite z-score", "OBSERVED VALUE": 1.7}
{"MOLECULE": "CC(C)(C)N1CC=CC23O[C@@H]4C=CCOC(=O)[C@@H]4[C@H]2C(=O)N(CCCO)[C@@H]3C1=O (stereo partly specified)", "MEASUREMENT TARGET": "Pro-neuregulin-1, membrane-bound isoform (Homo sapiens) (UniProt Q02297)", "QUANTITY": "composite z-score", "OBSERVED VALUE": -0.475}
{"MOLECULE": "O=C1O[C@H](c2ccccc2)[C@H](c2ccccc2)N2[C@H]1[C@@H](C(=O)O)[C@]1(C(=O)Nc3ccccc31)[C@H]2c1ccc(O)cc1", "MEASUREMENT TARGET": "Pro-neuregulin-1, membrane-bound isoform (Homo sapiens) (UniProt Q02297)", "QUANTITY": "composite z-score", "OBSERVED VALUE": 1.85}
{"MOLECULE": "C[n+]1ccc(CCCO)cc1", "MEASUREMENT TARGET": "Pro-neuregulin-1, membrane-bound isoform (Homo sapiens) (UniProt Q02297)", "QUANTITY": "composite z-score", "OBSERVED VALUE": -0.161}
{"MOLECULE": "COc1cc2c(cc1OC)CN(C(=O)[C@H]1[C@@H]3C(=O)O[C@@H](c4ccccc4)[C@@H](c4ccccc4)N3[C@@H](c3ccc(OCCO)cc3)[C@]13C(=O)Nc1ccc(C#CCCO)cc13)CC2", "MEASUREMENT TARGET": "Pro-neuregulin-1, membrane-bound isoform (Homo sapiens) (UniProt Q02297)", "QUANTITY": "composite z-score", "OBSERVED VALUE": 1.39}
{"MOLECULE": "O=C1C2C=CC(C(O)c3cc(C(F)(F)F)cc(C(F)(F)F)c3)N(Nc3ccc([N+](=O)[O-])cc3)C2C(=O)N1c1ccccc1 (stereo unspecified)", "MEASUREMENT TARGET": "Pro-neuregulin-1, membrane-bound isoform (Homo sapiens) (UniProt Q02297)", "QUANTITY": "composite z-score", "OBSERVED VALUE": 1.86}
{"MOLECULE": "O=C1O[C@@H](c2ccccc2)[C@@H](c2ccccc2)N2[C@@H](c3ccccc3OCCO)[C@]3(C(=O)Nc4ccc(C#CC5=CCCCC5)cc43)[C@@H](C(=O)NC[C@H](O)c3ccccc3)[C@H]12", "MEASUREMENT TARGET": "Pro-neuregulin-1, membrane-bound isoform (Homo sapiens) (UniProt Q02297)", "QUANTITY": "composite z-score", "OBSERVED VALUE": 1.42}
{"MOLECULE": "[N-]=[N+]=NCc1ccccc1[C@H]1OC(c2ccc(OCCCO)cc2)=N[C@@]1(CCS(=O)(=O)c1ccccc1)C(N)=O", "MEASUREMENT TARGET": "Pro-neuregulin-1, membrane-bound isoform (Homo sapiens) (UniProt Q02297)", "QUANTITY": "composite z-score", "OBSERVED VALUE": 2.03}
{"MOLECULE": "CC=CC(O)C1C=CC2C(=O)N(c3ccccc3)C(=O)C2N1Nc1ccccc1 (stereo unspecified)", "MEASUREMENT TARGET": "Pro-neuregulin-1, membrane-bound isoform (Homo sapiens) (UniProt Q02297)", "QUANTITY": "composite z-score", "OBSERVED VALUE": 1.91}
{"MOLECULE": "CC(C)(C)OC(=O)CC[C@]1(C(=O)NCCN2CCOCC2)N=C(c2ccc(OCCCO)cc2)O[C@H]1c1ccccc1N=[N+]=[N-]", "MEASUREMENT TARGET": "Pro-neuregulin-1, membrane-bound isoform (Homo sapiens) (UniProt Q02297)", "QUANTITY": "composite z-score", "OBSERVED VALUE": 1.72}

----------
Assay: basal S. cerevisiae growth modulation, no modifier, primary screen, OD600, strain BY4716, 24 h, basal condition (AID 1173)
Conditions: OD600, 24 h, higher = more signal, called active from +8 up or from −8 down

{"MOLECULE": "CCOC(=O)C1=CC[C@@H](c2ccc([N+](=O)[O-])cc2)N(S(=O)(=O)c2ccc(C)cc2)[C@H]1c1ccccc1", "z-score": 2.52}
{"MOLECULE": "CC[C@H]1C2=C3C(CC[C@H]4C(OCc5ccc(F)cc5C(F)(F)F)OC[C@](C)([C@@H]34)N(C(=O)OC(C)(C)C)C2)C2COC(=O)OCC21 (stereo not given in full)", "z-score": 0.485}
{"MOLECULE": "C=CCNC(=O)[C@@H]1[C@H]2C(=O)O[C@H](c3ccccc3)[C@H](c3ccccc3)N2[C@H](c2ccc(OCCO)cc2)[C@@]12C(=O)N(C(=O)OCCOC)c1ccc(C#CC3=CCCCC3)cc12", "z-score": 1.83}
{"MOLECULE": "[N-]=[N+]=NCc1ccccc1C[C@@]1(C(=O)N2CCCCC2)N=C(c2ccc(OCCCO)cc2)O[C@@H]1c1ccccc1N=[N+]=[N-]", "z-score": 0.146}
{"MOLECULE": "COc1ccccc1CN1C(=O)c2ccccc2[C@](Cc2ccccc2I)(C(=O)NC(C)C)[C@@H]1c1ccc(CO)cc1", "z-score": -0.601}

----------
Molecular target: Neurogenic locus notch homolog protein 3 (Homo sapiens) (UniProt Q9UM47)
Sequence (Q9UM47 whole entry, looked up): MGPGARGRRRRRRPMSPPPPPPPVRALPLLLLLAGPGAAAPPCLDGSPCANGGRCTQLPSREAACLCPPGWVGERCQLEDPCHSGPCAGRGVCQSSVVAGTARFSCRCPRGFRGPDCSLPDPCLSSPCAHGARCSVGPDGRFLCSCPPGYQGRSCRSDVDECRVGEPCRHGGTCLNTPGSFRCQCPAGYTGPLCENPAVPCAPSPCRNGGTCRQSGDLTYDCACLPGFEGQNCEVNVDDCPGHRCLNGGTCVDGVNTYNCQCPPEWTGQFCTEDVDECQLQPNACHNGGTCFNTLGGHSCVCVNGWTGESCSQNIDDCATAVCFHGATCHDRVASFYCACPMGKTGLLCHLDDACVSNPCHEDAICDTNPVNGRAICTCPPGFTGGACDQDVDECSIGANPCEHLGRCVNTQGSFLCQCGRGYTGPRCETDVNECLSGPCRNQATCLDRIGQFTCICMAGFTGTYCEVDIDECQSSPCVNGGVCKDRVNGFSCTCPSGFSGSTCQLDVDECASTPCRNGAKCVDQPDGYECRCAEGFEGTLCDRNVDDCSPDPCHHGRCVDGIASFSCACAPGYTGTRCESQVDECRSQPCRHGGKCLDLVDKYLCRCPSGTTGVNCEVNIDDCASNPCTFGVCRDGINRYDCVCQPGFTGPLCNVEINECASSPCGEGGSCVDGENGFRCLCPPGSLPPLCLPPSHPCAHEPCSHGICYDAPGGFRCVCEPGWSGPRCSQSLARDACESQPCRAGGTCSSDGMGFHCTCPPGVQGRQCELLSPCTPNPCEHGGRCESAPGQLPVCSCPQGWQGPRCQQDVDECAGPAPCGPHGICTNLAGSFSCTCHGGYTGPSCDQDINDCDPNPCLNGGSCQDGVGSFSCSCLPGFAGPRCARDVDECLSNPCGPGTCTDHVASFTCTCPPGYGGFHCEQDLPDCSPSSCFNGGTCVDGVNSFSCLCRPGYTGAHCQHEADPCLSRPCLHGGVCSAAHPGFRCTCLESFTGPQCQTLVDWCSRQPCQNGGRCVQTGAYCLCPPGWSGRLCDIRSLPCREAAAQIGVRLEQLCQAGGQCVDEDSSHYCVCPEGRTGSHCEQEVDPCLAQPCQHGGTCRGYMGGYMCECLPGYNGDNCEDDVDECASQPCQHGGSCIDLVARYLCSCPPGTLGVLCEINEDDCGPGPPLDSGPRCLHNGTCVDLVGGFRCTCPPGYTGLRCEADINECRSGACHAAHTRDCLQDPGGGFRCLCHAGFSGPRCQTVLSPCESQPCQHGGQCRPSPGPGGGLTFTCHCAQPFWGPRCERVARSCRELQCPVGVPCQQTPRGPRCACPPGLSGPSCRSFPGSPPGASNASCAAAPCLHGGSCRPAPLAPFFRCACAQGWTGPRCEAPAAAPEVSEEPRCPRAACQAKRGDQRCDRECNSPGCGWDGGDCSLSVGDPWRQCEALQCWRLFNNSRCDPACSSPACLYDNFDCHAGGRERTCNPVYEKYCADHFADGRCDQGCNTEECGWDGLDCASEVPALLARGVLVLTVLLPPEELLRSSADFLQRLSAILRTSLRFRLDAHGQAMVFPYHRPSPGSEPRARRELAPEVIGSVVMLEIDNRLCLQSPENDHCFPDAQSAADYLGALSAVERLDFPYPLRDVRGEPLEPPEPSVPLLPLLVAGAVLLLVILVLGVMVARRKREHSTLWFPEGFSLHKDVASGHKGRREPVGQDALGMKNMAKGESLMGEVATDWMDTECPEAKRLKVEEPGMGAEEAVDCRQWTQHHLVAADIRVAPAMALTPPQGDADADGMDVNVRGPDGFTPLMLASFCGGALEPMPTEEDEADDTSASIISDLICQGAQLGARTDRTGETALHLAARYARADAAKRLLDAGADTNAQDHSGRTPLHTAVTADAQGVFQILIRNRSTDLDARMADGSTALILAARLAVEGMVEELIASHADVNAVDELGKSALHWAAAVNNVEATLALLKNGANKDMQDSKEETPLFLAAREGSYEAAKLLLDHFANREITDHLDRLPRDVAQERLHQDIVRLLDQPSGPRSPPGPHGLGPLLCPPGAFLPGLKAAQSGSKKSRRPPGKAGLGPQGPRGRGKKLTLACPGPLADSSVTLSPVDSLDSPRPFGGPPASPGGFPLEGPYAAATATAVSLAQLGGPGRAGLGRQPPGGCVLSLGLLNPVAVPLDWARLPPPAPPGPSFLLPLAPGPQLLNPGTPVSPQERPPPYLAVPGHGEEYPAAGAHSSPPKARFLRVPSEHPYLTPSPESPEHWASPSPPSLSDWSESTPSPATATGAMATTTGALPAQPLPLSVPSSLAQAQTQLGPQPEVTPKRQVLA
Experiment: NOTCH3 binders on small-molecule microarray, primary screen, biochemical, 635/667 nm fluorescence (AID 1096)
Conditions: NOTCH3 binding, 635 nm fluorescence, higher = more signal
Response key: true (1) means composite z-score >= 0.6; false (0) means composite z-score < 0.6.

{"COMPOUND": "Cc1ccc(S[C@]2(C(=O)NC(C)C)CC(=O)N(C3Cc4ccccc4C3)[C@@H]2c2ccc(CO)cc2I)cc1", "LABEL": "false (0)"}
{"COMPOUND": "NCCCCCCNC(=O)[C@H]1C[C@H]2C(=O)N[C@@H](Cc3ccccc3)C(=O)N2[C@H]1c1ccc(O)cc1", "LABEL": "false (0)"}
{"COMPOUND": "CCOC(=O)C1=CC[C@@H](c2cc(Cl)ccc2Cl)N(S(=O)(=O)c2ccc(C)cc2)[C@H]1c1ccc(OC)cc1", "LABEL": "false (0)"}
{"COMPOUND": "COCCOC(=O)N1C(=O)[C@@]2(c3cc(C#CC4(O)CCCCCC4)ccc31)[C@H](C(N)=O)[C@H]1C(=O)O[C@H](c3ccccc3)[C@H](c3ccccc3)N1[C@@H]2c1ccccc1OCCO", "LABEL": "true (1)"}
{"COMPOUND": "CO[C@H]1O[C@H](CO)[C@@H](OC(=O)c2ccc(Br)cc2)[C@@H]2OC(=O)[C@@H](Cc3ccc4ccccc4c3)C/C=C/C[C@H](Cc3ccc4ccccc4c3)C(=O)O[C@@H]12", "LABEL": "false (0)"}
{"COMPOUND": "COC(=O)[C@@]1(Cc2ccc(OC)cc2)[C@H]2c3cc(C(=O)N4CCCC4)n(CCc4cc5ccccc5[nH]4)c3C[C@H]2CN1C(=O)c1ccccc1", "LABEL": "true (1)"}
{"COMPOUND": "CCCN1C(=O)[C@]2(Cc3ccccc3)N=C(c3ccc(OCCCO)cc3)O[C@@H]2c2ccccc21", "LABEL": "true (1)"}
{"COMPOUND": "CC(C)CN1C(=O)[C@@]2(Cc3ccccc31)c1ccccc1C(=O)N(Cc1ccccc1C(F)(F)F)[C@H]2c1ccc(CO)cc1", "LABEL": "false (0)"}
{"COMPOUND": "C[C@]1(C(=O)NC2CC2)c2ccccc2C(=O)N(Cc2ccc(OC(F)(F)F)cc2)[C@H]1c1ccc(CO)cc1", "LABEL": "false (0)"}
{"COMPOUND": "C=CC[C@@]1(C(=O)O)N=C(c2ccc(OCCCO)cc2)O[C@@H]1c1ccccc1", "LABEL": "false (0)"}
{"COMPOUND": "COC(=O)[C@@]1(Cc2ccc(F)cc2)[C@H]2c3cc(C(=O)N4CCCC4)n(CCF)c3C[C@H]2CN1C(=O)c1ccccc1", "LABEL": "true (1)"}
{"COMPOUND": "C[C@H]1ON(c2ccc(C(=O)OC(C)(C)C)cc2)[C@@H](c2ccc(O)cc2)[C@@H]1C(=O)N1C(=O)OC[C@@H]1c1ccccc1", "LABEL": "true (1)"}
{"COMPOUND": "CN(C)C(=O)[C@@]1(Cc2ccccc2N=[N+]=[N-])COC(c2ccc(OCCCO)cc2)=N1", "LABEL": "false (0)"}
{"COMPOUND": "COc1cc2c(cc1OC)CN(C(=O)[C@H]1[C@@H]3C(=O)O[C@@H](c4ccccc4)[C@@H](c4ccccc4)N3[C@@H](c3ccc(OCCO)cc3)[C@]13C(=O)Nc1ccc(C#CCCO)cc13)CC2", "LABEL": "true (1)"}
{"COMPOUND": "O=C1OCC=C[C@H]2OC34C=CCN(Cn5nnc6ccccc65)C(=O)[C@H]3N(CCCCCCO)C(=O)[C@@H]4[C@@H]12 (some centres undefined)", "LABEL": "false (0)"}
{"COMPOUND": "C=C(CCCC)C(=O)CC[C@@H](OC(=O)c1ccccc1-c1ccccc1C(=O)O)c1cccc(OCCO)c1", "LABEL": "true (1)"}
{"COMPOUND": "Cc1ccc(F)cc1S(=O)(=O)N[C@@H]1CCN(Cc2ccc(Oc3ccccc3)cc2)C1", "LABEL": "false (0)"}
{"COMPOUND": "CC(C)CNC(=O)[C@@H]1c2ccccc2C(=O)N(Cc2cc(F)cc(C(F)(F)F)c2)[C@H]1c1ccc(CO)cc1", "LABEL": "false (0)"}
{"COMPOUND": "COCCCNC(=O)[C@@H]1c2ccccc2C(=O)N(Cc2ccccc2C(F)(F)F)[C@H]1c1ccc(CO)cc1", "LABEL": "false (0)"}
